Assay: physchem
Conditions: 25 °C, organic solvent or mixture, thermodynamic from solid
parameter-measured: solubility

> print(dat)
                                   molecule  endpoint.result
1  Cc1c(C)c2c(c(C)c1O)CCC(C)(C(=O)O)O2 (stereo not shown)         ≥ 125 mM
